Where do the numbers come from? From a melting point compilation (Tetko et al.; mined from patent text by program, amines drawn as free bases though some values may be those of a salt).

reported_endpoint: melting point

Qu. So what does the record say about melting point for CN(O)C(=O)NCCCOc1ccc(-c2ccccc2)cc1 ?
Ans. 161 to 162 °C

Qu. So what does the record say about melting point for CCNc1ccc(Cl)cc1[N+](=O)[O-] ?
Ans. 90 to 91 °C

# evaluate next
Qu. So what does the record say about melting point for N#Cc1cccc(C(CC(=O)c2ccc(F)cc2)CC(=O)c2ccc(F)cc2)c1 ?
Ans. 120 to 123 °C

====

Quick reference: melting point of the listed items.

Solved entries (count: 5):
Qu. So what does the record say about melting point for O=C1N(c2cc(Cl)cc(Cl)c2)C(=O)C2(Cc3ccc(-c4nnn[nH]4)cc3)CCCN12 (centres undefined) ?
Ans. 195 °C

Qu. So what does the record say about melting point for O=C1NCCN1C1CCN(CCC2COc3cc(Cl)c(Cl)cc3O2)CC1 (centres undefined) ?
Ans. 85 to 90 °C

Qu. So what does the record say about melting point for O=c1[nH]c2cc(Cl)ccc2c(O)c1Sc1ccccc1 ?
Ans. > 300 °C

Qu. So what does the record say about melting point for CC(C)OCCNC(=O)c1cccc(-c2cccc3cc(Cc4cc(F)cc(Cl)c4)sc23)c1 ?
Ans. 84 to 85 °C

Qu. So what does the record say about melting point for CCC(CC)Nc1c([N+](=O)[O-])cc(C(C)C)c(C=CN(C)C)c1[N+](=O)[O-] ?
Ans. 88 to 89.5 °C

New cases:
Qu. So what does the record say about melting point for N#CC12CC3CC(CC(Cl)(C3)C1)C2 ?
Ans. 156 to 157 °C

Qu. So what does the record say about melting point for N#CCc1c[nH]c2ccc(CS(=O)(=O)NCc3ccccc3C(N)=O)cc12 ?
Ans. 202 to 206 °C

Qu. So what does the record say about melting point for NCC1Cc2cc(-c3ccccc3)cc(-c3ccc(F)cc3)c2O1 (centres undefined) ?
Ans. > 250 °C

Qu. So what does the record say about melting point for CC1CC2(C)C(CCC3C4CCC(C5(C)OCCO5)C4(C)CC(=O)C32)CC1O (centres undefined) ?
Ans. 167 to 168 °C

Qu. So what does the record say about melting point for Cc1cc(-c2c(-c3ccc(S(C)(=O)=O)cc3)cnn(-c3ccc(F)cc3)c2=O)ccc1F ?
Ans. 168 to 170 °C

Qu. So what does the record say about melting point for O=c1cccc(-c2ccccc2)[nH]1 ?
Ans. 200 °C

====

Quick reference: melting point of the listed items.

Solved entries (count: 4):
Qu. So what does the record say about melting point for CCCC(C)(C)NC(=O)n1nc(C)n(N)c1=O ?
Ans. 110 °C

Qu. So what does the record say about melting point for O=C(Nc1ccc(F)cc1F)Nc1cnc2cc3c(cc2c1-c1ccccc1Cl)CCC3 ?
Ans. 247 to 248 °C

Qu. So what does the record say about melting point for CN(C(=S)c1ccc([N+](=O)[O-])cc1)C1CCN(C2CCCCC2)C1 (configuration not stated) ?
Ans. 108 to 110 °C

Qu. So what does the record say about melting point for OC1CCCc2c(-c3ccc4nc(-c5ccc(Cl)cc5)cn4c3)cccc21 (configuration not stated) ?
Ans. 218 to 220 °C

New cases:
Qu. So what does the record say about melting point for Nc1ccc(S(=O)(=O)c2cc(-c3cccc(C(F)(F)F)c3)nc(N3CCCC3)c2)cc1 ?
Ans. 219 to 220 °C

Qu. So what does the record say about melting point for CCCP(=O)(O)CC(=O)CNCc1ccccc1 ?
Ans. 155 to 157 °C

Qu. So what does the record say about melting point for CCNC(=O)NC1(c2ccc(C(C)C)cc2OC)C(=O)c2ccccc2C1=O ?
Ans. 267 to 269 °C

Qu. So what does the record say about melting point for COC(=O)COc1ccc(C(=O)CN2CCN(c3ccnc(C)c3)CC2)cc1 ?
Ans. 155 to 157 °C

Qu. So what does the record say about melting point for Cc1cc(C2=NOC(c3cc(Cl)cc(Cl)c3)(C(F)(F)F)C2)ccc1C(=O)O (configuration not stated) ?
Ans. 146 to 148 °C

Qu. So what does the record say about melting point for CC1NC(=NO)OC1c1ccccc1 (configuration not stated) ?
Ans. 145 to 148 °C

Qu. So what does the record say about melting point for COC(=O)c1cccc(Cn2c(=O)c(=O)n(Cc3cccc(C(=O)O)c3)c3ccc([N+](=O)[O-])cc32)c1 ?
Ans. 238 to 240 °C

Qu. So what does the record say about melting point for CC(=O)Oc1ccc(Cn2ccnc2SC(C)=O)cc1F ?
Ans. 78 to 80 °C

Qu. So what does the record say about melting point for O=C1CC[C@@H](CI)N1Cc1ccccc1 ?
Ans. 92 to 94 °C

Qu. So what does the record say about melting point for CCNc1nc2ccc(CCc3ncc[nH]3)cc2o1 ?
Ans. 204 to 206 °C

Qu. So what does the record say about melting point for O=C(O)CCCCCCC=Cc1cccs1 ?
Ans. 45 to 46 °C

Qu. So what does the record say about melting point for O=C(O)c1cccc(-c2cc(-c3ccc(C(F)(F)F)cc3)on2)c1 ?
Ans. 276 to 277 °C

Qu. So what does the record say about melting point for COc1ccc(Nc2cc(-c3ccccc3)nc3ccccc23)cc1Cl ?
Ans. 272 to 274 °C

Qu. So what does the record say about melting point for CC(O)(c1nc(-c2ccc(F)cc2)c(-c2ccc(F)cc2)[nH]1)C(F)(F)F (configuration not stated) ?
Ans. 191 to 192 °C

Qu. So what does the record say about melting point for CC(C)(C)OC(=O)NNC(=O)Cc1nc2cc(F)c(N3CCN(C(=O)OC(C)(C)C)CC3)cc2n1C1CC1 ?
Ans. 202 to 203 °C

Qu. So what does the record say about melting point for CC(=O)N[C@@H](C)COC1CCN(c2nc3ccc(OCC4CC4)cc3s2)CC1 ?
Ans. 121 to 122 °C

Qu. So what does the record say about melting point for [N-]=[N+]=NS(=O)(=O)c1ccc(N2CC(CO)OC2=O)cc1 (configuration not stated) ?
Ans. 108 to 110 °C

Qu. So what does the record say about melting point for O=C1C(Cc2ccccc2)NC(=S)N1c1nc2ccc(F)cc2s1 (configuration not stated) ?
Ans. 223 to 224 °C
